Target: GST-hLGK1 (human liver type GK) (Homo sapiens)
Construct: with a BamHI site added to immediately before the initiation codon
Sequence (P35557 1-464 isoform P35557-3): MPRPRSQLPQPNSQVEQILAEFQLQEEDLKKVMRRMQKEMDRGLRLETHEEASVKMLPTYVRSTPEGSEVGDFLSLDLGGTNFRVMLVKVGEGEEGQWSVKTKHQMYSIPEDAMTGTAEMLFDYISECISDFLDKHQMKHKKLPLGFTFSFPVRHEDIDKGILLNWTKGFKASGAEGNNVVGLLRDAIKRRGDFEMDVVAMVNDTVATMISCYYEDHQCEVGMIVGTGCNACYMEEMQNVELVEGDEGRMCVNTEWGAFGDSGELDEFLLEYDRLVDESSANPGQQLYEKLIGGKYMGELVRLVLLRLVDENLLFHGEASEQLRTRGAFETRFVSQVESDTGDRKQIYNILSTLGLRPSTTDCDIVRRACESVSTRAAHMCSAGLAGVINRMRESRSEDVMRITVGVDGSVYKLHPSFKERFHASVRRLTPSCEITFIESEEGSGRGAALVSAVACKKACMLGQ
Experiment: Determination of GK activity value (Mant-ATP conversion, capillary electrophoresis)
Settings: concentration necessary for activating 50% of the maximum GK activity value, 37° C., 60 min, D-glucose added
pEC50: −log10 of the molar value.
Quick rule: pEC50 of at least 6 means y, below that means n.

{"columns": ["Smiles repr", "Class name"],
 "data": [
  ["CCOC(=O)c1[nH]c2c(NS(=O)(=O)c3cccs3)cccc2c1C", "n"],
  ["CN(c1cccc2cc(-c3ncc(CN4CCOCC4)s3)[nH]c12)S(=O)(=O)c1cccs1", "y"],
  ["CN(c1ccc(F)c2cc(-c3nccs3)[nH]c12)S(=O)(=O)c1cccs1", "y"],
  ["CN(c1cc(F)cc2cc(C3=NCCS3)[nH]c12)S(=O)(=O)c1cccs1", "y"],
  ["CCN(c1cccc2cc(C3=NCCS3)[nH]c12)S(=O)(=O)c1cccs1", "y"],
  ["O=S(=O)(Nc1cccc2cc(-c3ncon3)[nH]c12)c1cccs1", "n"],
  ["CN(c1cc(OC(F)(F)F)cc2cc(C3=NCCS3)[nH]c12)S(=O)(=O)c1cccs1", "y"],
  ["CN(c1cccc2cc(-c3ncc(CCC#N)s3)[nH]c12)S(=O)(=O)c1cccs1", "y"],
  ["CCCSc1ccc(NS(=O)(=O)c2cccs2)c2[nH]c(C(=O)OCC)cc12", "y"],
  ["CCN(c1cccc2cc(-c3ncc(COc4ccc(C(=O)O)cc4)s3)[nH]c12)S(=O)(=O)c1cccs1", "y"],
  ["CN(c1cccc2cc(-c3nccs3)[nH]c12)S(=O)(=O)c1nccn1C", "y"],
  ["Cc1c(C2=NCCS2)[nH]c2c(NS(=O)(=O)c3cccs3)cccc12", "n"],
  ["O=S(=O)(Nc1cccc2cc(-c3nccs3)[nH]c12)c1cccs1", "y"],
  ["Cc1cc(NS(=O)(=O)c2cccs2)c2[nH]c3c(c2c1)CCNC3=O", "n"],
  ["CCOC(=O)Cc1cnc(-c2cc3cccc(N(C)S(=O)(=O)c4cccs4)c3[nH]2)s1", "y"],
  ["CN(c1cccc2cc(C3=NCCS3)[nH]c12)S(=O)(=O)c1cccs1", "y"],
  ["CN(c1ccc(Cl)c2cc(-c3ncc(CO)s3)[nH]c12)S(=O)(=O)c1cccs1", "y"],
  ["O=S(=O)(Nc1cccc2cc(C3=NCCS3)[nH]c12)c1cccs1", "y"],
  ["CN(c1cccc2cc(-c3nccs3)[nH]c12)S(=O)(=O)c1cccs1", "y"]
]}
